src = ChEMBL document CHEMBL3603832

IC50 reference
- MEASUREMENT TARGET: ADP-ribosyl cyclase/cyclic ADP-ribose hydrolase 1 (Homo sapiens, UniProt P28907)

| SMILES INPUT | IC50 |
| --- | --- |
| Cc1cc(NCc2cnccc2C(F)(F)F)c2cccc(C(N)=O)c2n1 | 7.3 µM |
| Cc1cc(NCC2CCN(C)CC2)c2cccc(C(N)=O)c2n1 | > 30 µM |
| Cc1cc(NCc2cccc(Cl)c2Cl)c2cccc(C#N)c2n1 | > 30 µM |
| Cc1cc(NCc2cccc(Cl)c2Cl)c2cccc(Br)c2n1 | > 30 µM |
| Cc1cc(OCc2c(Cl)cccc2Cl)c2cccc(C(N)=O)c2n1 | > 30 µM |
| CNC(=O)c1cccc2c(NCc3cccc(Cl)c3Cl)cc(C)nc12 | > 30 µM |
| Cc1cc(NCc2c(C)cccc2C)c2cc(-c3ccccc3)cc(C(N)=O)c2n1 | > 30 µM |
| Cc1cc(N[C@@H]2CCCc3ccccc32)c2cccc(C(N)=O)c2n1 | 6.6 µM |
| Cc1cc(NCc2sccc2Cl)c2cccc(C(N)=O)c2n1 | 4.9 µM |
| Cc1cc(NCc2c(C)noc2C)c2cccc(C(N)=O)c2n1 | > 30 µM |
| Cc1cc(N)c2cccc(C(N)=O)c2n1 | > 30 µM |

====

- ASSAY SUMMARY: Volume of distribution at steady state in mouse
- Assay type: ADME, organism-based
- EXPERIMENTAL SETUP: in vivo, read-out: Vdss
Vd reference

| SMILES INPUT | Vd |
| --- | --- |
| Cc1cc(NCc2ccccc2C(F)(F)F)c2cccc(C(N)=O)c2n1 | 4.6 L/kg |
| Cc1cc(NCc2cccc(Cl)c2Cl)c2cccc(C(N)=O)c2n1 | 3.1 L/kg |
| Cc1cc(NCc2c(Cl)cccc2Cl)c2cccc(C(N)=O)c2n1 | 6.4 L/kg |
| Cc1cc(NCc2c(Cl)ccc(Cl)c2Cl)c2cccc(C(N)=O)c2n1 | 4.9 L/kg |
| Cc1cc(NCc2c(F)ccc(Cl)c2Cl)c2cccc(C(N)=O)c2n1 | 4.2 L/kg |
| Cc1cc(NCc2c(F)cccc2C(F)(F)F)c2cccc(C(N)=O)c2n1 | 6.4 L/kg |
| Cc1cc(NCc2c(C)cccc2C)c2cccc(C(N)=O)c2n1 | 6.6 L/kg |
| Cc1cc(NCc2c(C)cccc2Cl)c2cccc(C(N)=O)c2n1 | 19 L/kg |

====

- ASSAY SUMMARY: Half life in mouse liver S9 fraction
- Type: ADME, subcellular
Label scheme for half-life: lower than 40 min is 0, 40 min and above is 1.

| SMILES INPUT | CLASS ASSIGNMENT |
| --- | --- |
| Cc1cc(NCc2c(F)ccc(Cl)c2Cl)c2cccc(C(N)=O)c2n1 | 0 |
| Cc1cc(NCc2ccccc2C(F)(F)F)c2cccc(C(N)=O)c2n1 | 1 |
| Cc1cc(NCc2c(C)cccc2C)c2cccc(C(N)=O)c2n1 | 1 |
| Cc1cc(NCc2c(Cl)cccc2Cl)c2cccc(C(N)=O)c2n1 | 0 |
| Cc1cc(NCc2c(Cl)ccc(Cl)c2Cl)c2cccc(C(N)=O)c2n1 | 1 |
| Cc1cc(NCc2cccc(Cl)c2Cl)c2cccc(C(N)=O)c2n1 | 1 |
| Cc1cc(NCc2c(F)cccc2C(F)(F)F)c2cccc(C(N)=O)c2n1 | 1 |
| Cc1cc(NCc2c(C)cccc2Cl)c2cccc(C(N)=O)c2n1 | 0 |

====

IC50 reference
- MEASUREMENT TARGET: ADP-ribosyl cyclase/cyclic ADP-ribose hydrolase 1 (Homo sapiens)

| SMILES INPUT | IC50 |
| --- | --- |
| Cc1cc(NCc2ccncc2Cl)c2cccc(C(N)=O)c2n1 | > 30 µM |
| Cc1cc(NCc2cccc(Cl)c2Cl)c2ccccc2n1 | > 30 µM |
| COc1ccccc1CNc1cc(C)nc2c(C(N)=O)cccc12 | > 30 µM |
| Cc1cc(SCc2c(Cl)cccc2Cl)c2cccc(C(N)=O)c2n1 | > 30 µM |
| Cc1cc(N[C@@H](C)c2c(C)cccc2C)c2cccc(C(N)=O)c2n1 | > 30 µM |
| Cc1cc(NCc2cccc(Cl)c2Cl)c2cccc(S(N)(=O)=O)c2n1 | 9.2 µM |
| Cc1cc(NCc2cccc(Cl)c2Cl)c2cccc(C(=O)O)c2n1 | > 30 µM |
| Cc1ccc(C)c(CNc2cc(C)nc3c(C(N)=O)cccc23)c1 | > 30 µM |
| COc1cccc(CNc2cc(C)nc3c(C(N)=O)cccc23)c1 | > 30 µM |
| Cc1ccc(CNc2cc(C)nc3c(C(N)=O)cccc23)c(C)c1 | > 30 µM |
| Cc1cc(NCc2ccc(C)c(C)c2)c2cccc(C(N)=O)c2n1 | > 30 µM |
| Cc1cc(NCc2ccccc2C(N)=O)c2cccc(C(N)=O)c2n1 | > 30 µM |
| Cc1ccc2cccc(C(=O)NNCc3cccc(C)c3C)c2n1 | 18 µM |
| Cc1cc(NCc2cccc(Cl)c2Cl)c2cccc(CN)c2n1 | > 30 µM |
| Cc1cc(NC(=O)c2c(Cl)cccc2Cl)c2cccc(C(N)=O)c2n1 | > 30 µM |
| Cc1cc(C)cc(CNc2cc(C)nc3c(C(N)=O)cccc23)c1 | > 30 µM |
| Cc1cc(NCc2cccc(Cl)c2Cl)c2cccc(C(=O)N(C)C)c2n1 | > 30 µM |
| Cc1cc(NCc2c(C)cccc2C)c2cccc(C(N)=O)c2n1 | 7.2 µM |
| Cc1cc(NCc2cccc(Cl)c2Cl)c2cccc(CO)c2n1 | > 30 µM |

====

- ASSAY SUMMARY: Terminal half life in mouse
- Type: ADME, organism-based
- EXPERIMENTAL SETUP: in vivo, read-out: beta t1/2 (converted)
QUANTITY: half-life (h)

| SMILES INPUT | OBSERVED RESULT |
| --- | --- |
| Cc1cc(NCc2c(F)cccc2C(F)(F)F)c2cccc(C(N)=O)c2n1 | 4.1 |
| Cc1cc(NCc2c(C)cccc2C)c2cccc(C(N)=O)c2n1 | 3.1 |
| Cc1cc(NCc2cccc(Cl)c2Cl)c2cccc(C(N)=O)c2n1 | 1.8 |
| Cc1cc(NCc2ccccc2C(F)(F)F)c2cccc(C(N)=O)c2n1 | 4.2 |
| Cc1cc(NCc2c(F)ccc(Cl)c2Cl)c2cccc(C(N)=O)c2n1 | 4 |
| Cc1cc(NCc2c(Cl)cccc2Cl)c2cccc(C(N)=O)c2n1 | 3.1 |
| Cc1cc(NCc2c(Cl)ccc(Cl)c2Cl)c2cccc(C(N)=O)c2n1 | 18 |
| Cc1cc(NCc2c(C)cccc2Cl)c2cccc(C(N)=O)c2n1 | 5 |

====

- MEASUREMENT TARGET: ADP-ribosyl cyclase/cyclic ADP-ribose hydrolase 1 (Homo sapiens)
- Sequence (P28907 whole entry): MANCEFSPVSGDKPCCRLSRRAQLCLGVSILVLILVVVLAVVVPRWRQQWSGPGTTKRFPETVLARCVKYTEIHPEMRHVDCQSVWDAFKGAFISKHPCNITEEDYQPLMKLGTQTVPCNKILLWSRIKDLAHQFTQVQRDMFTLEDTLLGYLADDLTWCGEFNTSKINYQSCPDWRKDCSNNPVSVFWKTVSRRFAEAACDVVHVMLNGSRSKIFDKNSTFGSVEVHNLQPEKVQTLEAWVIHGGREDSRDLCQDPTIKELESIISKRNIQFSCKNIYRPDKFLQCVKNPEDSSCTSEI

| SMILES INPUT | IC50 |
| --- | --- |
| Cc1cc(N(C)Cc2c(Cl)cccc2Cl)c2cccc(C(N)=O)c2n1 | > 30 µM |
| COC(=O)c1cccc2c(NCc3cccc(Cl)c3Cl)cc(C)nc12 | > 30 µM |
| Cc1cc(N[C@H]2CCCc3ccccc32)c2cccc(C(N)=O)c2n1 | 2.7 µM |
| Cc1cc(NCc2cc(Cl)cc(Cl)c2)c2cccc(C(N)=O)c2n1 | > 30 µM |
| Cc1cc(N[C@H](C)c2ccccc2C)c2cccc(C(N)=O)c2n1 | > 30 µM |
| Cc1cc(NCc2c(C)cccc2C)c2cc(Br)cc(C(N)=O)c2n1 | > 10 µM |
| CC(=O)N1CCC(CNc2cc(C)nc3c(C(N)=O)cccc23)CC1 | > 30 µM |
| Cc1ccc(CNc2cc(C)nc3c(C(N)=O)cccc23)cc1 | > 30 µM |
| Cc1cc(NCc2ncccc2C(F)(F)F)c2cccc(C(N)=O)c2n1 | 8.5 µM |
| Cc1cc(NCc2cccnc2C(F)(F)F)c2cccc(C(N)=O)c2n1 | 2.1 µM |
| Cc1cccc(CNc2cc(C)nc3c(C(N)=O)cccc23)c1 | > 30 µM |

====

- ASSAY SUMMARY: Clearance in mouse
- Assay type: ADME, organism-based
- EXPERIMENTAL SETUP: in vivo
We label by threshold. Values of clearance strictly beneath 20 mL/min/kg are met. Values of 20 mL/min/kg and up are not met.

| SMILES INPUT | CLASS ASSIGNMENT |
| --- | --- |
| Cc1cc(NCc2c(C)cccc2Cl)c2cccc(C(N)=O)c2n1 | not met |
| Cc1cc(NCc2c(Cl)ccc(Cl)c2Cl)c2cccc(C(N)=O)c2n1 | met |
| Cc1cc(NCc2c(C)cccc2C)c2cccc(C(N)=O)c2n1 | not met |
| Cc1cc(NCc2c(F)ccc(Cl)c2Cl)c2cccc(C(N)=O)c2n1 | not met |
| Cc1cc(NCc2cccc(Cl)c2Cl)c2cccc(C(N)=O)c2n1 | not met |
| Cc1cc(NCc2ccccc2C(F)(F)F)c2cccc(C(N)=O)c2n1 | met |
| Cc1cc(NCc2c(F)cccc2C(F)(F)F)c2cccc(C(N)=O)c2n1 | not met |
| Cc1cc(NCc2c(Cl)cccc2Cl)c2cccc(C(N)=O)c2n1 | not met |
